Hey, just so you know, these numbers are from PubChem BioAssay AID1159580.

test: chemical genetic growth profiling, strain panel (AID 1159580);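 note: tested at 20 µM; growth read once vehicle control cultures reached saturation at 30 °C; lower values mean less growth of the strain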; conditions: S. cerevisiae deletion strains, growth OD, locus YNL307C, strain MCK1, stronger effect = lower value
Among all 5,500 compounds or so, about 2,000 (36%) were called active. About 18% were inconclusive and are not listed. The list shows a part of the results.
# note: exactly 1 is not below, so it is not met; use met for normalized growth strictly under it

Check if normalized growth falls below 1 for C[C@@H]1CC[C@@]2(OC1)OC1C(O)C3C4CC[C@H]5C[C@H](O[C@@H]6O[C@H](CO)[C@H](O[C@@H]7O[C@H](CO)[C@@H](O)[C@H](O[C@@H]8OC[C@@H](O)[C@H](O)[C@H]8O)[C@H]7O[C@@H]7O[C@H](CO)[C@H](O)[C@H](O[C@@H]8O[C@H](CO)[C@@H](O)[C@H](O)[C@H]8O)[C@H]7O)[C@H](O)[C@H]6O)[C@H](O)C[C@]5(C)C4CC[C@]3(C)C1[C@@H]2C (some centres not stated) .
met

Quick check: does COc1ccc2c(=O)cc(-c3ccccc3OC)oc2c1 have normalized growth under 1?
met

Is normalized growth strictly under 1 for the entry CN(C)CC/C=C1/c2ccccc2COc2ccccc21 ?
not met

Does the reported normalized growth of CC1(C)O[C@@H]2CC3C4C[C@H](F)C5=CC(=O)C=C[C@]5(C)[C@@]4(F)[C@@H](O)C[C@]3(C)[C@]2(C(=O)CO)O1 (some centres not stated) stay below 1?
not met
